Where do the numbers come from? From the nanobody polyreactivity screen of Harvey et al. (2022).

Assay: yeast display, Sf9 membrane polyspecificity reagent, FACS + sequencing; frameworks hold sequencing errors
Attribute Measured: polyreactivity (PSR sort gate)

1. QVQLVESGGGLVQAGGSLRLSCAASGSIFPYNDMGWYRQAPGKERELVAAISDSAGSTYYADSVKGRFTISRDNAKNTVYLQMNSLKPEYTAVYYCADYDYWGQGTQVTVSS :: low polyreactivity
2. HVQLVESGGGLVQAGGRLRLSCAASGRNFVENAIGWYRQAPGKEWEFVAAISGGGSTDYADSVKGRFTISRDNAKNTVYLQMNSLKPEDTAVYYCNARQVFTTAGREMDYWGQGTQVTVSS :: low polyreactivity
3. QVQLVESGGGLVQAGGSLRLSSAASGSILWQYAMGWYRQAPGTERELVAAMTYSGGSTHYADSVKGRFTISRDNAKNTVYLQMNSLKPEDTAVYYCAAGYWYRYAALRYDHWGQGTQVTVSS :: low polyreactivity

====

Test: yeast display, Sf9 membrane polyspecificity reagent, FACS + sequencing; frameworks hold sequencing errors
Attribute Measured: polyreactivity (PSR sort gate)

1. QVQLVESGGGLVQAGGSLRLSCAASGSTFTRNAMGWYRQAPGKERELVAAITSSGGSTYYADSVKGRFTISRDNAKITVYLQMNSLKPEDTAVYYCAAYPHRPRDRELDHWGQGTQVTVSS :: low polyreactivity
2. QVQLVESGGGLVQAGGSLRLSSAASGITFGRNTMGWYRQAPGKEREFVAAIDSGGNTYADSVQGRFTISRDNAKNTVYLQMNSLKPEDTAVYYCAVAGGEFSSYGYLGQGTQVTVSS :: low polyreactivity
3. QVQLVESGGGLVQAGGSLRLSCAASGFTFYPYSMGWYRQAPGKERELVAAITRGGSTYYADSVKGRFTISRDNAKNTVFLQMNSLKPEDTAVYYCNAYWQGYGYYYWGQGTQVTVSS :: low polyreactivity

====

Assay: yeast display, Sf9 membrane polyspecificity reagent, FACS + sequencing; frameworks hold sequencing errors
Attribute Measured: polyreactivity (PSR sort gate)

1) QVQLVESGGGLVQAGGSLRLSCAASGSIFYYYAMGWYRQAPGKERELVAAISRSGGSTYYADSVKGRFTISRDNAKNTVYVQMNSLKRDDTAVYYCAAQSRYWTYDYWGQGTQVTVSS :: high polyreactivity
2) QVQLVESGVGLVQAGGSLRLSCAASGITSRYYAMGCYRQAPGKERELVAAISGNGGRTYYADSVKGRFTISRDIAKNSVYFQMNSMKPEDTAVYYCAARAHKTRHNYWGQGTQVTVSS :: high polyreactivity
3) QVQLVESGGGLVQAGGSLRLSCAASGRILTSNAMGWYRQAPGTEMELVAAISWSGGSTYYADSVKGRFTISRDNAKNTVYLQMNSLKPEDTAVYYCAAVSYYASDYRYDYWGQGTQVTVSS :: low polyreactivity
4) QVQLVDSGGGLVQAGGSLRLSCAASGSTLVYKDMGLYRQAPGKEREFVAAIRSNDGSTYYADSVKGRFTISRDNAKNTVYLQMNSLKPEDTAVYYCAKGRYAYSIWDDYWGQGTQVTVSS :: low polyreactivity

====

Test: yeast display, Sf9 membrane polyspecificity reagent, FACS + sequencing; frameworks hold sequencing errors
Attribute Measured: polyreactivity (PSR sort gate)

1) QVQLVESGGGLVQAGGSLRLSCAASGSTFWANAMGWSRPAPGKERELVAAITSTGITYYADSVKGRFTISRDNAKNTVYLQMNSLIPEDTAVYYCAAEPPDEFWTDLLVDYFLGYEYWGPGTQVTVSS :: low polyreactivity
2) QVQLVESGGGLVQAGGSLRLSCAASGLTFWYYVMGWYRQAPGKERELVAAINIGGSTKYAYSVKGRFTISRDNAKNTVYLQMNSLKPEDTAVYYCAAQYYYTGTRSIRSFDYWGQGTQVTVSS :: low polyreactivity
3) QVQLVESGGGLVQAGGRLRLSCAASGRIFVQYVMGWYRQAPGKERELVAAITGSDSTTYYADSVKGRFTISRDNAKNTVYLQMNSLKPEDTAVYYCNKDLWLQDDYWGQGTQVTVSS :: low polyreactivity
